assayed.system: aldose reductase (Bos taurus, UniProt P16116)
Construct: the preparation of the enzyme from bovine lens; from tissue; host or cells: bovine lens
measurement.notes: in vitro aldose reductase inhibition (modified Hayman and Kinoshita procedure)
Format: biochemical, bovine
recorded.conditions: 10^-7 molar; read-out: % Inhibition at Different Molar Concentration (in vitro), 10^-7
parameter: inhibition at 0.1 µM (%)

>  <compound>
COc1ccc2c(C(=S)N(C)CC(=O)O)cccc2c1Br

>  <quantitative.result>
72

$$$$
>  <compound>
CN(CC(=O)O)C(=S)c1cccc2ccccc12

>  <quantitative.result>
13

$$$$
>  <compound>
CCCN(CC(=O)O)C(=S)c1cccc2c(Br)cccc12

>  <quantitative.result>
19

$$$$
>  <compound>
C=CCN(CC(=O)O)C(=S)c1cccc2c(Br)cccc12

>  <quantitative.result>
27

$$$$

[I] CCN(CC(=O)O)C(=S)c1cccc2c(Br)cccc12
[II] CCCCCOc1ccc2c(C(=S)N(C)CC(=O)O)cccc2c1Br
[III] CN(CC(=O)O)C(=S)c1cccc2c(Br)c(OCc3ccc(Cl)cc3)ccc12 [Example 53a]
[IV] CN(CC(=O)O)C(=S)c1cccc2c(Br)c(OCc3cccc(C(F)(F)F)c3)ccc12
With regard to inhibition at 0.1 µM, arrange the entries in ascending order, please. Put the labels in the requested order and list them out.
III, IV, I, II
